- System: RPMI-8226
- experiment.notes: NCI tumour cell line growth inhibition, 48 h
Calls of active or inactive are those of the source. Rule as the data show it: active = GI50 up to about 1.1 µM and inactive = higher.
Would you mind answering with one of these outcomes? yes for active, no for inactive

Task: Test call for this compound, please: COc1ccc(CNc2nc(NCc3ccc(OC)cc3)nc(N3CCOCC3)n2)cc1
Output: no

Task: Test call for this compound, please: COCCOC(=O)C(C)=[N+]=[N-]
Output: no

Task: Test call for this compound, please: O=C(O)c1ccccc1CC(Cc1ccccc1)C(=O)O (stereo not drawn)
Output: no

Task: Test call for this compound, please: COC(=O)C1(C(=O)OC)CC2c3c(c4ccccc4n3C)CC(C1=O)N2Cc1ccccc1 (stereo not drawn)
Output: no

Task: Test call for this compound, please: OC(COC(c1ccccc1)(c1ccccc1)c1ccccc1)C(O)CC1SCCS1 (stereo not drawn)
Output: no

Task: Test call for this compound, please: Cc1cccc(/C=N/NC(=S)NC(C)(C)C)n1
Output: no

Task: Test call for this compound, please: CC1=C(C)C(=O)O[C@@H]([C@](C)(O)[C@]2(O)CC[C@@]3(O)[C@@H]4C[C@H](O)[C@]5(O)[C@@H](O)C=CC(=O)[C@]5(C)[C@H]4CC[C@]23C)C1
Output: no

Task: Test call for this compound, please: CCCOc1ccc(-c2nc(-c3ccc(/N=C/c4ccc(N(CCOS(C)(=O)=O)CCOS(C)(=O)=O)cc4C)cc3)cs2)cc1
Output: no

Task: Test call for this compound, please: CCCCCCCCC(C)CCCCCCCCC(=O)OCC(COP(=O)([O-])OCC[N+](C)(C)C)OC(=O)CCCCCCCCC(C)CCCCCCCC (stereo not drawn)
Output: no

Task: Test call for this compound, please: NCCN1CC2CCC(CC2)C1
Output: no

Task: Test call for this compound, please: CC1(C)CC[C@]2(C(=O)O)[C@H](O)C[C@]3(C)C(=CC[C@@H]4[C@@]5(C)CC[C@H](OC6OC(C(=O)O)C(O)C(O)C6O)C(C)(C)[C@@H]5CC[C@]43C)[C@@H]2C1 (stereo partly drawn)
Output: no

Task: Test call for this compound, please: COc1ccc(/C=C2\CCC(C)C3C2=NN(c2ccccc2)C3c2ccc(OC)c(OC)c2)cc1OC (stereo not drawn)
Output: no

Task: Test call for this compound, please: COC(=O)/C=C/[C@@H]1[C@H](C)N1S(=O)(=O)c1ccc(C)cc1 (stereo partly drawn)
Output: no

Task: Test call for this compound, please: CN(C)c1ccc(/C=C2\N=C(N/N=C/c3ccccc3)NC2=O)cc1
Output: no

Task: Test call for this compound, please: CN(C)c1ccc(/C=N\NC(=O)CSCC(=O)N/N=C/c2ccc(N(C)C)cc2)cc1
Output: no

Task: Test call for this compound, please: COc1cc2c(cc1OCCCOc1cc3c(cc1OC)C(=O)N1CCC[C@H]1C(=O)N3)N=C[C@@H]1CCCN1C2=O
Output: no

Task: Test call for this compound, please: CC12CCCCC1=C(F)C(F)(F)S2 (stereo not drawn)
Output: no

Task: Test call for this compound, please: Clc1nc2c(-c3cccs3)ncnc2n1Cc1ccccc1
Output: no

Task: Test call for this compound, please: CN(C)c1ccc2oc(=O)c3ccccc3c2c1
Output: no

Task: Test call for this compound, please: CN1CCN(CCSC2Cc3cc(Cl)ccc3Sc3ccccc32)CC1 (stereo not drawn)
Output: no

Task: Test call for this compound, please: O=C1c2cccc(NCCCNCCO)c2C(=O)c2cccc(NCCCNCCO)c21
Output: no

Task: Test call for this compound, please: Cc1ccc(NC(=O)C(=O)CC(=O)c2c(C)[n+]([O-])c3ccccc3[n+]2[O-])cc1C
Output: no

Task: Test call for this compound, please: O=C1C=CC(=O)c2ncccc21
Output: no

Task: Test call for this compound, please: O=C(c1ccccc1)c1ccc2c(c1)N=C(c1ccc(Cl)c(Cl)c1)CC(c1ccc3ccccc3c1)N2 (stereo not drawn)
Output: no

Task: Test call for this compound, please: COC(=O)[C@@]12CC(C(C)C)[C@H]3CC(C(=O)C=C1OC)[C@H]32 (stereo partly drawn)
Output: no

Task: Test call for this compound, please: COc1cc(C2SCC(=O)N2c2ccc(-n3c(-c4ccccc4)nc4ccccc4c3=O)cc2)cc(OC)c1OC (stereo not drawn)
Output: no

Task: Test call for this compound, please: Cn1c2c(c3ccccc31)CCN1C(=O)C34CCCC3CC21S4 (stereo not drawn)
Output: no

Task: Test call for this compound, please: COC(=O)c1ccccc1C1=C([N+](=O)[O-])C(c2ccccc2)C(C#N)=C(N)O1 (stereo not drawn)
Output: no

Task: Test call for this compound, please: FC(F)(F)c1cccc(-c2nc3ccccc3c3c2[C@@]2(N4CCCC4)CCCC[C@@H]32)c1
Output: no

Task: Test call for this compound, please: CN(C)CCCn1c2c3ccccc3ccc2c2oc(=O)c3ccccc3c21
Output: no

Task: Test call for this compound, please: C/C(=N\Nc1ccc([N+](=O)[O-])cc1[N+](=O)[O-])c1sc(-n2nc(-c3ccccc3)cc2-c2ccccc2)nc1C
Output: no

Task: Test call for this compound, please: Cn1c2c(cc(-c3ccccc3)c1=O)COc1ccccc1-2
Output: no

Task: Test call for this compound, please: CN(C)CCC(=O)N1C/C(=C\c2ccc(Cl)c(Cl)c2)C(=O)/C(=C/c2ccc(Cl)c(Cl)c2)C1
Output: yes

Task: Test call for this compound, please: CCOC(=O)N[C@H]1CCc2cc(O)c(OC)c(OC)c2-c2ccc(SC)c(=O)cc21
Output: yes

Task: Test call for this compound, please: Cc1ccc2c(c1)[nH]c(=S)n2/C=C1\C(=O)Oc2ccccc2C1=O
Output: no

Task: Test call for this compound, please: COC(=O)/C(=C\c1cn(C(C)=O)c2ccccc12)P(=O)(OC)OC
Output: no

Task: Test call for this compound, please: c1ccc(C2OCCO2)c(OCCOc2cc(OCCOc3ccccc3C3OCCO3)c(OCCOc3ccccc3C3OCCO3)cc2OCCOc2ccccc2C2OCCO2)c1
Output: no

Task: Test call for this compound, please: N=c1[nH]cnc2c1nnn2C1C=CC(COS(N)(=O)=O)C1 (stereo not drawn)
Output: no

---

Please provide measured GI50 for the entries that follow.
- Tested on: NCI-H23
- experiment.notes: NCI tumour cell line growth inhibition, 48 h
The source made the active and inactive calls. No stated cut-off is given here; in the data, active = GI50 up to about 1.1 µM and inactive = higher.

Task: Look up GI50 for this compound: CCOc1ccc(NC2=NC(=O)C(CC(=O)Nc3ccc(Cl)cc3Cl)S2)cc1 (stereo not given)
Output: > 100 µM (inactive)

Task: Look up GI50 for this compound: COc1cccc(C23CCN(C)C(CC(O)C2)C3)c1OC (stereo not given)
Output: > 100 µM (inactive)

Task: Look up GI50 for this compound: OC1C=C2C3CN(Cc4cc5c(cc43)OCO5)[C@H]2C[C@@H]1O (stereo not given in full)
Output: 5.96 µM (inactive)

Task: Look up GI50 for this compound: Cc1ccc2[nH]c(=O)c(C(C#N)c3ccccc3)nc2c1 (stereo not given)
Output: 60.8 µM (inactive)

Task: Look up GI50 for this compound: COC(=O)[C@@H]1C2OC(C)(C)OC2CN1C(=O)OCc1ccccc1 (stereo not given in full)
Output: > 100 µM (inactive)

Task: Look up GI50 for this compound: CN(C)c1ccc(/C=N\NC(=O)CSCC(=O)N/N=C/c2ccc(N(C)C)cc2)cc1
Output: 49.9 µM (inactive)

Task: Look up GI50 for this compound: COc1cc(/C=N\N(C)C)cc(/C=N/N(C)C)c1O
Output: > 100 µM (inactive)

Task: Look up GI50 for this compound: O=C(c1ccco1)N(C(=S)N1CCN(c2ccccn2)CC1)c1ccccc1
Output: > 100 µM (inactive)

Task: Look up GI50 for this compound: CN(Cc1cnc2c(n1)C(N)=NN(N)N2)c1ccc(C(=O)NC(CCP(=O)(O)O)C(=O)O)cc1 (stereo not given)
Output: 14.9 µM (inactive)

Task: Look up GI50 for this compound: NC1=NN(c2ccccc2)C(=O)C1C(=O)C(=O)Nc1ccccc1 (stereo not given)
Output: > 100 µM (inactive)

Task: Look up GI50 for this compound: COc1ccc2c(c1)CC[C@@H]1C2CC[C@]2(C)OC(=O)CCC12 (stereo not given in full)
Output: 12.6 µM (inactive)

Task: Look up GI50 for this compound: O=C(C[n+]1ccccc1)N/N=C(\Cc1nc2ccc([N+](=O)[O-])cc2nc1O)C(=O)Nc1cc(Cl)c(Cl)cc1Cl
Output: > 100 µM (inactive)

Task: Look up GI50 for this compound: Cc1ccccc1N1C(=O)/C(=C/c2ccc(N(CCC#N)CCC#N)cc2)N=C1c1cc([N+](=O)[O-])ccc1Cl
Output: > 100 µM (inactive)

Task: Look up GI50 for this compound: CCN(C(=O)N[C@H](C(=O)N[C@@H](CSC)C(=O)N[C@@H](C)C(=O)OC)C(C)C)c1ccccc1
Output: 17.8 µM (inactive)

Task: Look up GI50 for this compound: O=C(/C=C/c1ccccc1)/C=N/N1C(=S)N(c2ccccc2)C(=N\c2ccccc2)/C1=N/c1ccccc1
Output: > 100 µM (inactive)

Task: Look up GI50 for this compound: COC(=O)[C@@H]1CS(=O)(=O)C(C(C)C)N1C(C)=O (stereo not given in full)
Output: > 100 µM (inactive)

Task: Look up GI50 for this compound: O=C1CCc2c3c(c4c([nH]c5ccccc54)c2CC1)C(=O)NC3=O
Output: 8.93 µM (inactive)

Task: Look up GI50 for this compound: O=C1NC2=NOC(=O)NC2=NO1
Output: > 200 µM (inactive)

Task: Look up GI50 for this compound: CCC(NC1=NCCO1)c1cccs1 (stereo not given)
Output: 16.9 µM (inactive)

Task: Look up GI50 for this compound: Cc1ccc(C)c2c1C/C(=C\c1ccccc1C(=O)O)C2=O
Output: > 100 µM (inactive)
